# Tested on: CAOV3
# MEASUREMENT_DESCRIPTION: Primary qHTS to identify gynecologic anti-cancer compounds using libraries of approved drugs and bioactive compounds (AID 1345084); further: nearly all actives have a fitted effect of over 55% in size
# CONDITIONS: Gynecologic cancer cell panel viability, ATPlite luminescence, 48 h; series mostly up to 57.5 µM
Results filed as inconclusive are left out. Active and inactive are the calls of the source. The call rests on the fitted dose curve; in most records, active means well fitted cell-killing curve with a large enough effect; inconclusive means small, poorly fitted or top-dose-only effect, or effect the other way; inactive means flat fitted curve, though single readings scatter.
Select the matching outcome among 1 = active, -1 = inactive

Input line: Assay result, entry `C(#Cc1nc2ncccc2nc1OCCN1CCCC1)c1ccccc1` — outcome?
Output line: 1

Input line: What outcome does the record of this test show for `COc1ccc(CCO[C@@H]2CCCC[C@H]2N2CC[C@@H](O)C2)cc1OC` ?
Output line: -1

Input line: Hi team, can someone confirm the assay call for `CCCC(=O)NCCc1csc(-c2ccc(Cl)cc2)n1` ?
Output line: -1

---

# MEASUREMENT_DESCRIPTION: Primary redox qHTS assay for identification of artifact compounds. (AID 1845223);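 further: 0% = DMSO and 100% = reference compound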
# CONDITIONS: Amplex Red/HRP redox cycling with DTT, fluorescence; series mostly up to 53.8 µM
Inconclusive results are not listed. Activity calls are given as the source filed them. The call rests on the fitted dose curve; in most records, active means well fitted activation curve with a large enough effect; inconclusive means small, poorly fitted or top-dose-only effect; inactive means flat fitted curve, though single readings scatter.
MEASURED_ATTRIBUTE: redox activity (% of DA3003)

# count of solved cases: 6
Input line: Using the record for `C/C1=C\[C@H]2OC(=O)[C@@H](C)[C@@H]2CC/C(C(=O)O)=C/CC1` , report its redox activity (% of DA3003).
Output line: inactive

Input line: Could you tell me which redox activity (% of DA3003) is on file for CC1(C)CC[C@]2(C(=O)O[C@@H]3O[C@H](CO)[C@@H](O)[C@H](O)[C@H]3O)CC[C@]3(C)C(=CCC4[C@@]5(C)C[C@@H](O)[C@H](O)[C@](C)(C=O)C5CC[C@]43C)[C@@H]2[C@@H]1O (stereo not given in full) ?
Output line: inactive

Input line: Given the entry `O=C1CCC(=O)N(O)CCCCCNC(=O)CCC(=O)N(O)CCOCCNC(=O)CCC(=O)N(O)CCCCCN1` , report its measured redox activity (% of DA3003).
Output line: inactive

Input line: Quick one: redox activity (% of DA3003) for `Nc1ncnc2c([C@@H]3N[C@H](CO)[C@@H](O)[C@H]3O)c[nH]c12` ?
Output line: inactive

Input line: Form field: reported redox activity (% of DA3003) of `CC[C@@](C)(Nc1ccnc(-c2c[nH]c3ncccc23)n1)C(=O)NCC(F)(F)F`
Output line: inactive

Input line: Which redox activity (% of DA3003) value belongs to `C[C@H]1CC[C@@H]2N(C1)C[C@@H]1[C@H]([C@@H](O)[C@H](O)[C@]3(O)[C@H]1C[C@@]14OC5(O)[C@@H](C[C@@H](O)[C@@H]31)[C@]4(C)CC[C@@H]5O)[C@]2(C)O` ?
Output line: inactive

Others:
Input line: Using the record for COC(=O)C[C@H]1C(C)(C)[C@H](OC(C)=O)C2CC3=C4CC(=O)O[C@@H](c5ccoc5)[C@]4(C)CCC3[C@@]1(C)C2=O (stereo not given in full) , report its redox activity (% of DA3003).
Output line: inactive

Input line: Requested read-out: redox activity (% of DA3003). Entry: `CN(c1ccccc1CNc1nc(Nc2ccc3c(c2)CC(=O)N3)ncc1C(F)(F)F)S(C)(=O)=O`
Output line: inactive

Input line: Query (molecule): `CN[C@@H]1[C@H](O[C@H]2[C@H](O[C@@H]3[C@@H](O)[C@H](O)[C@@H](N=C(N)N)[C@H](O)[C@H]3N=C(N)N)O[C@@H](C)[C@]2(O)C=O)O[C@@H](CO)[C@H](O)[C@H]1O` ; field requested: redox activity (% of DA3003)
Output line: inactive

Input line: Look up redox activity (% of DA3003): C=C(C(=O)OC)C1C(O)CC2(C)C(O)CCC(=O)C2C1O (stereo not given)
Output line: inactive

Input line: Please report the recorded redox activity (% of DA3003) for `CCN(CC)CCN(Cc1ccc(-c2ccc(C(F)(F)F)cc2)cc1)C(=O)Cn1c(SCc2ccc(F)cc2)nc(=O)c2c1CCC2` .
Output line: inactive

Input line: What redox activity (% of DA3003) value was documented for this molecule, CC(C)[N+]1(C)C2CCC1CC(OC(=O)C(CO)c1ccccc1)C2 (stereo not given) ?
Output line: inactive

Input line: Record request: redox activity (% of DA3003) value, item `CNC(=O)c1ccccc1Nc1nc(Nc2ccc(N3CCNCC3)cc2)ncc1Cl`
Output line: inactive

Input line: Item under review: CC1(C)CC[C@]2(C(=O)O)CC[C@]3(C)C(=CCC4[C@@]5(C)CC[C@H](O[C@@H]6O[C@H](CO)[C@@H](O)[C@H](O)[C@H]6O[C@@H]6O[C@H](CO)[C@@H](O)[C@H](O)[C@H]6O)[C@@](C)(CO)C5CC[C@]43C)[C@@H]2C1 (stereo not given in full) . Reported redox activity (% of DA3003)?
Output line: inactive

Input line: Dear colleague, I am looking for the recorded redox activity (% of DA3003) of the following molecule: CCOC(=O)C(CCc1ccccc1)NC(C)C(=O)N1C(=O)N(C)CC1C(=O)O (stereo not given)
Output line: inactive

---

# Tested on: SKOV3
# MEASUREMENT_DESCRIPTION: Primary qHTS to identify gynecologic anti-cancer compounds using libraries of approved drugs and bioactive compounds (AID 1345084); further: nearly all actives have a fitted effect of over 55% in size
# CONDITIONS: Gynecologic cancer cell panel viability, ATPlite luminescence, 48 h; series mostly up to 57.5 µM
Inconclusive results are not listed. The source made the active and inactive calls. The call rests on the fitted dose curve; in most records, active means well fitted cell-killing curve with a large enough effect; inconclusive means small, poorly fitted or top-dose-only effect, or effect the other way; inactive means flat fitted curve, though single readings scatter.
MEASURED_ATTRIBUTE: outcome

Below: 4 compounds and their reported outcome.
Input line: Give outcome (SKOV3) of the following compound: COc1cc(O)c([C@@H](CC(=O)N2CC(C)CC(C)C2)c2ccc3c(c2)OCO3)c(OC)c1 (stereo partly drawn)
Output line: inactive

Input line: Lab note: need outcome with SKOV3 for entry CC1(C)CC[C@]2(C(=O)O[C@@H]3O[C@H](CO)[C@@H](O)[C@H](O)[C@H]3O)CC[C@]3(C)C(=CCC4[C@@]5(C)C[C@@H](O)[C@H](O)[C@@](C)(CO)C5CC[C@]43C)C2[C@@H]1O (stereo partly drawn) , please look it up.
Output line: inactive

Input line: Record `O=C(O)/C=C/c1cc2c(cc1O[C@@H]1O[C@H](CO)[C@@H](O)[C@H](O)[C@H]1O)OCO2` : what is its outcome with SKOV3?
Output line: inactive

Input line: Give the reported outcome for C=C1CC[C@H]2[C@@](C)(CCC(O)[C@@]2(C)CO)[C@@H]1CCC1=CCOC1=O (stereo partly drawn) (system: SKOV3).
Output line: inactive

Others:
Input line: I'm curious: which outcome was measured for CC(C)CCC1(O)C(=O)C(C)(C)C(O[C@@H]2O[C@H](CO)[C@@H](O)[C@H](O)[C@H]2O)C(C)(C)C1O (stereo partly drawn) tested on SKOV3?
Output line: inactive

Input line: # returns recorded outcome (system: SKOV3) for `COc1ccccc1NC(=O)OCC1CCN(C(=O)OC(C)(C)C)CC1`
Output line: inactive

Input line: Query for SKOV3: what outcome does the record show for `O=C(CCCCN1CCOCC1)Nc1ccc(-c2cccnc2)cc1` ?
Output line: inactive

Input line: // lookup outcome | system=SKOV3 | key= `C[C@H](NC(=O)CCc1nc2ccccc2c(=O)[nH]1)c1ccccc1`
Output line: inactive

---

# Test system: HeLa
# MEASUREMENT_DESCRIPTION: Primary qHTS to identify gynecologic anti-cancer compounds using libraries of approved drugs and bioactive compounds (AID 1345084); further: nearly all actives have a fitted effect of over 55% in size
# CONDITIONS: Gynecologic cancer cell panel viability, ATPlite luminescence, 48 h; series mostly up to 57.5 µM
Inconclusive results are not listed. The source made the active and inactive calls. Calls come from the whole dose curve; as a rule, active = well fitted cell-killing curve with a large enough effect; inconclusive = small, poorly fitted or top-dose-only effect, or effect the other way; inactive = flat fitted curve, though single readings scatter.
A correct response names exactly one class from active, inactive

Example results:
Input line: Outcome logged for `CN1CCN(C(=O)c2ccc3cc(CCNc4ncnc5ccc(C#N)cc45)ccc3c2)CC1` in this assay:
Output line: inactive

Input line: Recorded test call requested for CC(C)c1c2cc(-c3ccnc(NC4CCC(NC5CCOCC5)CC4)n3)ccc2nn1C (centres undefined)
Output line: active

Input line: Please indicate how the test categorized CC1CC[C@]2(C(=O)O)CC[C@]3(C(=O)O)C(=CCC4[C@@]5(C)CC[C@H](O[C@@H]6O[C@H](CO)[C@@H](O)[C@H](O)[C@H]6O)C(C)(C)C5CC[C@]43C)C2C1C (some centres undefined) .
Output line: inactive

In the following, a different compound is considered.
Input line: Which outcome was assigned to `C=C1C[C@]23C[C@H]1CC[C@H]2C1=C[C@H]2OC(=O)[C@@](C)([C@H]1[C@@H]3C(=O)O)[C@H]2O` in this test?
Output line: inactive

---

# MEASUREMENT_DESCRIPTION: Primary redox qHTS assay for identification of artifact compounds. (AID 1845223);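 further: 0% = DMSO and 100% = reference compound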
# CONDITIONS: Amplex Red/HRP redox cycling with DTT, fluorescence; series mostly up to 53.8 µM
Results filed as inconclusive are left out. Activity calls are given as the source filed them. The call rests on the fitted dose curve; in most records, active means well fitted activation curve with a large enough effect; inconclusive means small, poorly fitted or top-dose-only effect; inactive means flat fitted curve, though single readings scatter.
MEASURED_ATTRIBUTE: redox activity (% of DA3003)

Examples with answers:
Input line: Could you tell me which redox activity (% of DA3003) is on file for `CCOC(=O)Nc1cc(-c2ccc(C)c(NS(C)(=O)=O)c2)nn2c(C)nnc12` ?
Output line: inactive

Input line: Returns the measured redox activity (% of DA3003) for the input compound. Input: `CC[C@H]1OC(=O)[C@](C)(F)C(=O)[C@H](C)[C@@H](O[C@@H]2O[C@H](C)C[C@H](N(C)C)[C@H]2O)[C@](C)(OC)C[C@@H](C)C(=O)[C@@H](C)[C@H]2N(CCCCn3cc(-c4cccc(N)c4)nn3)C(=O)O[C@]12C`
Output line: inactive

Input line: Which redox activity (% of DA3003) is reported for this compound? CC1OC(OC2C(C)OC(OC3C(O)C(CO)OC(O[C@H]4CC[C@@]5(C)C(CC[C@]6(C)C5CC=C5C7[C@@H](C)[C@H](C)CC[C@]7(C(=O)O)CC[C@]56C(=O)O)C4(C)C)C3O)C(O)C2O)C(O)C(O)C1O (stereo partly drawn)
Output line: -18.3% [at 11.5 µM] (inactive)

Input line: So what does the record say about redox activity (% of DA3003) for C[C@H](NC(c1cccc(C[P+](=O)O)c1)[C@H](C)O)c1ccc(Cl)c(Cl)c1 (stereo partly drawn) ?
Output line: inactive

Input line: What does the data say about its redox activity (% of DA3003)? Entry: `CCNC(=O)Nc1ncc(-c2cc(-c3c(C)cc(OC)cc3C)nc(-c3cnccn3)n2)s1`
Output line: inactive

Others:
Input line: Returns the measured redox activity (% of DA3003) for the input compound. Input: `COc1ccc(-c2cnc3ccc(NCc4ccc(S(N)(=O)=O)cc4)nn23)cc1OC`
Output line: inactive

Input line: Please report the recorded redox activity (% of DA3003) for CC(C)c1ccc2c(c1)C(=O)CC1[C@@](C)(C(=O)O)CCC[C@]21C (stereo partly drawn) .
Output line: inactive

Input line: Give the measured redox activity (% of DA3003) of `CC(=O)c1ccc(O[C@@H]2O[C@H](CO)[C@@H](O)[C@H](O)[C@H]2O)cc1` .
Output line: inactive
